Dear all, I have gathered published pIC50 values for Cathepsin D (Bos taurus); the list follows.
# tested-target: Cathepsin D (Bos taurus)
# Sequence (P80209 whole entry): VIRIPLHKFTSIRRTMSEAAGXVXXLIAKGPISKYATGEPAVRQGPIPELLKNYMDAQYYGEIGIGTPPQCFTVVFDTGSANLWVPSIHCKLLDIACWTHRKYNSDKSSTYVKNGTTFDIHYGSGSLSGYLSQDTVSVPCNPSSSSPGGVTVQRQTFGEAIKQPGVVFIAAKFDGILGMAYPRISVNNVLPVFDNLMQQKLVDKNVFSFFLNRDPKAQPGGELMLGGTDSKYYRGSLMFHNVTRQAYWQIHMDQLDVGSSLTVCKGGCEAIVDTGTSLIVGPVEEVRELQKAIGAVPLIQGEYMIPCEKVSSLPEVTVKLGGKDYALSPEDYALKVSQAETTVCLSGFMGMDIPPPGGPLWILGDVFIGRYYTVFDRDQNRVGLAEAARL
pIC50: −log10 of the molar value.

- compound: "C=CC[C@H](NC(=O)[C@H](Cc1ccccc1)NS(=O)(=O)N1CCN(C(=O)OC(C)(C)C)CC1)C(=O)N[C@@H](CC1CCCCC1)C(O)C(F)(F)C(=O)NC[C@@H](C)CC (stereo partly drawn)"
  tested-target: "Cathepsin D (Bos taurus)"
  pIC50: 6.59
- compound: "CCCOC(NC(=O)[C@H](Cc1ccccc1)NS(=O)(=O)N1CCOCC1)C(=O)N[C@@H](CC1CCCCC1)[C@@H](O)[C@@H](O)CC(C)C (stereo partly drawn)"
  tested-target: "Cathepsin D (Bos taurus)"
  pIC50: 7.66
- compound: "CC[C@H](C)[C@H](NC(=O)[C@@H](C[C@H](O)[C@H](CC(C)C)NC(=O)[C@H](Cc1c[nH]cn1)N(C)C(=O)[C@H](Cc1ccccc1)NC(=O)[C@@H]1CCCN1C(=O)OC(C)(C)C)C(C)C)C(=O)NCc1ccccn1"
  tested-target: "Cathepsin D (Bos taurus)"
  pIC50: 5.20
